# Measurement target: T1, TrkC (UniProt Q16288 32-429, limits assumed)
# T1 construct: also called NTRK3; TrkC receptor
# Assay procedure: SPR (BIAlite), receptor amine-coupled on CM4 chip, ligand injected, 25 C
Attribute: pKd
Friendly reminder that pKd comes from taking -log10 of the concentration in mol/L.

The examples below pair each entry with its known result.
{"Binder": "RGIDSKHWNSY (also called NGF derived peptide NGF-E) [NGF-E]", "pKd": 5.97}
{"Binder": "SYVRALTMDSKKRIGWR (also called BDNF derived peptide BDNF-EE) [BDNF-EE]", "pKd": 6.78}
{"Binder": "TFVKALTMDGKQAAWR (also called NGF derived peptide NGF-EE) [NGF-EE]", "pKd": 7.28}
{"Binder": "CVLSRKAVRRA [NGF-C2]", "pKd": 6.18}

Now examine the next entry.
INPUT: Can you share its pKd? I mean this binder: RGIDKRHWNSQ (also called BDNF derived peptide BDNF-E) [BDNF-E]
OUTPUT: 6.16
